Where do these numbers come from? They come from patent US7435837B2.

Molecular target: human 5-HT2C receptor (Homo sapiens)
Sequence (P28335 33-458): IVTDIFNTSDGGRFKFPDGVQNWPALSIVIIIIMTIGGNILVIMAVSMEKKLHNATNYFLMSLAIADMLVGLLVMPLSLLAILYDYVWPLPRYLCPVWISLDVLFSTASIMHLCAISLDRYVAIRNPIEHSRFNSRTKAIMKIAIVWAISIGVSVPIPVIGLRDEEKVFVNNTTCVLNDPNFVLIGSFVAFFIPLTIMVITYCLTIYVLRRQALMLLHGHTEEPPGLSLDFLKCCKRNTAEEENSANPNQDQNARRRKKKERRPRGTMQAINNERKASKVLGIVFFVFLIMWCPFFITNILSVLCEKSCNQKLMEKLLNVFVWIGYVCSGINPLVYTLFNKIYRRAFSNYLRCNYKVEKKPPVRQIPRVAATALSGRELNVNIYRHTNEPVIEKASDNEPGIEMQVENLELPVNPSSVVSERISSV
Test: 5-HT2C receptor-stimulated calcium mobilization (FLIPR) in CHO cells;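 note: Fluo-3-AM fluorescence read on FLIPR every 1 s, agonist added after 10 baseline reads, response taken as peak minus lowest raw fluorescence count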
Assay type: cell-based
Settings: calcium mobilization, CHO cells stably expressing human 5-HT2C; read-out: 5-HT2C Function EC50
QUANTITY MEASURED: EC50 (µM)
Report the figure in µM without appending any unit label.

# example entries with known answers
MOLECULE	QUANTITY MEASURED	OBSERVED MEASUREMENT
CNCC1Cc2cc(F)cc(-c3ccccc3F)c2O1 (racemic) [Example 438]	EC50	0.068
Cc1cccc(-c2cc(F)cc3c2OC(CN)C3)c1 (racemic) [Example 198]	EC50	0.903

Input Cc1ccc(-c2cccc3c2OC(CN)C3)cc1 (single isomer, unassigned; (-)) [Example 72] . Output EC50: 0.511

Form field EC50, entry CNCC1Cc2cccc(-c3cccc(Cl)c3)c2O1 (racemic) [Example 416] : 0.467

---

Listing of recorded log10(Ki) by entry.
Target: human 5-hydroxytryptamine-2C (h5-HT2C) receptor (Homo sapiens, UniProt P28335)
Construct: expressed in transfected cells; host or cells: CHO (Chinese Hamster Ovary) cells; membranes
Sequence (P28335 33-458): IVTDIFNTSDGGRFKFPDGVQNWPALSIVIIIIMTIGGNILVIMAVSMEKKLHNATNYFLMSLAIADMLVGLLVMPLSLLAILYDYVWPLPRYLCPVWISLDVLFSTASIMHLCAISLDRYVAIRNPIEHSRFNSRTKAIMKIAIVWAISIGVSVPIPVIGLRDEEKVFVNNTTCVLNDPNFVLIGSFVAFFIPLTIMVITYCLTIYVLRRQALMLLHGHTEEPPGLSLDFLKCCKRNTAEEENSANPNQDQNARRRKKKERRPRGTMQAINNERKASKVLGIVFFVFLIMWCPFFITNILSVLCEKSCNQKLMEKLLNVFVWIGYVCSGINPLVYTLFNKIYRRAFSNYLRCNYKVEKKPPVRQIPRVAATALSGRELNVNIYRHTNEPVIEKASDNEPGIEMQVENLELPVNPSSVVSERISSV
Experiment: [125I]DOI binding to membranes of CHO cells expressing the human 5-HT2C receptor
Details: [125I]DOI radioligand, CHO cell membranes, room temperature 60 min; read-out: 5-HT2C Affinity Ki
log10 Ki, nM

MOLECULE	QUANTITY MEASURED	OBSERVED MEASUREMENT
CNCC1Cc2cccc(-c3ccccc3Cl)c2O1 (single isomer, unassigned; (+)) [Example 410]	log10(Ki)	-1.10
COc1ccc(OC)c(-c2cccc3c2OC(CN)C3)c1 (racemic)	log10(Ki)	1.11

Per the record, COc1cccc(-c2cc(F)c3c(c2)CC(CN)O3)c1 (racemic) has log10(Ki) of 3.10

Recorded result, CNCC1Cc2cccc(-c3ccc(C)cc3)c2O1 (racemic) , log10(Ki): 0.04

For record NCC1Cc2cc(Cl)cc(-c3ccsc3)c2O1 (single isomer, unassigned; (+)) [Example 92] the listed log10(Ki) is 1.79

The reported log10(Ki) of the molecule CNCC1Cc2cccc(-c3ccc(F)cc3)c2O1 (racemic) was 0.58

// log10(Ki) lookup, molecule = NCC1Cc2cc(-c3cccc(C(F)(F)F)c3)cc(F)c2O1 (racemic) , result: 3.25

Item: NCC1Cc2cc(Cl)cc(-c3cccc(F)c3F)c2O1 (single isomer, unassigned; (-)) [Example 245] | log10(Ki): 0.30
